target: hCRTH2 (Homo sapiens)
Construct: expressed in transfected cells; host or cells: HEK (human embryonic kidney) cells expressing hCRTH2; membrane preparation
Sequence (Q9Y5Y4 1-395): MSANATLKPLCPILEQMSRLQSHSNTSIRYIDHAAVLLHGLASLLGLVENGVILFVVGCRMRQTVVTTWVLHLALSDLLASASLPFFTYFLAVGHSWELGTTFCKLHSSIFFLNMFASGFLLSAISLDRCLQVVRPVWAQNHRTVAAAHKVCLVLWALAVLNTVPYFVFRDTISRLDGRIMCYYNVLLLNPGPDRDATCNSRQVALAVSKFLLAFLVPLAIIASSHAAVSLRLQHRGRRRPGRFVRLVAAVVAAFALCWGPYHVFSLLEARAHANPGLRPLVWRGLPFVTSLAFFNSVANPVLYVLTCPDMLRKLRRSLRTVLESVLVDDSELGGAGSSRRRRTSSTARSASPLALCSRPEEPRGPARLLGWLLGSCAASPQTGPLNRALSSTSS
protocol_description: Radioligand binding assay ([3H]PGD2 competition, HEK-hCRTH2 membranes)
condition_label: [3H]PGD2 competition, Table B
List of Ki values.

Below, 2 compounds whose answers are already recorded.
| smiles_data | Ki |
| --- | --- |
| O=C(O)CCCCc1nc2cc(C(=O)N[C@@H]3CCOc4ccccc43)ccc2nc1-c1ccc(Cl)cc1 | 0.1 to 2 nM |
| O=C(c1ccc2nc(-c3ccc(F)cc3)c(CCCC(F)(F)C(=O)O)nc2c1)N1CCC(c2ccccc2)CC1 | 2.1 to 20 nM |

**Q:** I am curious: what Ki value has been reported for "O=C(N[C@H]1CCOc2ccccc21)c1ccc2nc(-c3ccc(F)cc3)c(CCCC(F)(F)C(=O)O)nc2c1" ?
**A:** 201 to 700 nM

**Q:** Okay, and "O=C(O)CCCCc1nc2cc(C(=O)N3CCN(c4cnccn4)CC3)ccc2nc1-c1ccc(F)cc1" ?
**A:** 20.1 to 200 nM

**Q:** Okay, and "O=C(O)CCCCc1nc2cc(C(=O)N[C@@H]3CCc4cc(Cl)ccc43)ccc2nc1-c1ccc(Cl)cc1" ?
**A:** 0.1 to 2 nM

**Q:** Okay, and "C[C@@H]1CN(c2ccc(Cl)cc2)CCN1C(=O)c1ccc2nc(-c3ccc(F)cc3)c(CCCCC(=O)O)nc2c1" ?
**A:** 2.1 to 20 nM

**Q:** Okay, and "C[C@@H](CCc1nc2cc(C(=O)N[C@@H](C)c3ccc(F)cc3)ccc2nc1-c1ccccc1)CC(=O)O" ?
**A:** 20.1 to 200 nM
